target: human PDE5 (Homo sapiens, UniProt O76074); assay: Inhibition of the type 5 phosphodiesterase (PDE5) activity, modified SPA test with platelet lysate; conditions: PDE5 from human platelet lysate, 0.5 μM cGMP
quantity: IC50 (nM)

response.value for `CCCCOc1ccc2c(c1-c1ncnc3c(C(=O)N[C@@H]4CCN(C(=O)CC)C4)c[nH]c13)OCO2` (field: IC50) = 0.389

response.value for `COCCOc1cc(OC)ccc1-c1ncnc2c(C(=O)NC3CCN(C(=O)C4(O)CC4)CC3)c[nH]c12` (field: IC50) = 8.51

response.value for `O=C(N[C@H]1CC[C@@H](NC(=O)C2(O)CC2)CC1)c1c[nH]c2c(-c3ccc(F)cc3OCC3CC3)ncnc12` (field: IC50) = 1.51

response.value for `COCCOc1cc(OC)ccc1-c1ncnc2c(C(=O)N[C@H]3CC[C@H](NC(=O)C4CC4)CC3)c[nH]c12` (field: IC50) = 6.61

(a) CCCCOc1ccc2c(c1-c1ncnc3c(C(=O)N[C@@H]4CCN(C(=O)OCC)C4)c[nH]c13)OCO2
(b) C[C@H](O)C(=O)N[C@H]1CC[C@H](NC(=O)c2c[nH]c3c(-c4ccc(F)cc4OCC4CC4)ncnc23)CC1
Field: lower IC50 | Options: a / b Answer by quoting the chosen item's label.
a

(P) O=C(N[C@H]1CC[C@@H](NC(=O)C2CC2)CC1)c1c[nH]c2c(-c3c(OCC4CC4)ccc4c3OCO4)ncnc12
(Q) CC(=O)N[C@H]1CC[C@H](NC(=O)c2c[nH]c3c(-c4cc(C)ccc4OCC4CC4)ncnc23)CC1
(R) COCCOc1cc(OC)ccc1-c1ncnc2c(C(=O)NC3CCN(C(=O)C4CC4)CC3)c[nH]c12
Give the ascending ranking of the items by reported IC50. Arrange the labels as the request states and list them.
P, Q, R
(P: 0.224 nM, Q: 1.2 nM, R: 6.03 nM)

(1) CC(=O)N[C@H]1CC[C@H](NC(=O)c2c[nH]c3c(-c4cc(F)ccc4OCC4CC4)ncnc23)CC1
(2) O=C(NC1CCN(C(=O)CO)CC1)c1c[nH]c2c(-c3c(OCC4CC4)ccc4c3OCO4)ncnc12
From the recorded data, which exceeds the other in IC50: 1 or 2 ? Answer by quoting the chosen item's label.
1
(1: 1.12 nM, 2: 0.302 nM)

(I) CC(=O)N1CC[C@@H](NC(=O)c2c[nH]c3c(-c4c(OCC5CC5)ccc5c4OCO5)ncnc23)C1
(II) CCCCOc1ccc2c(c1-c1ncnc3c(C(=O)NC4CCN(C(=O)OCC)CC4)c[nH]c13)OCO2
From the recorded data, which exceeds the other in IC50: I or II ? Answer by quoting the chosen item's label.
I
(I: 1 nM, II: 0.1 nM)

(a) COCC(=O)N1CC[C@@H](NC(=O)c2c[nH]c3c(-c4cc(OC)c(F)cc4OCC4CC4)ncnc23)C1
(b) O=C(NCC1CCN(C(=O)C2CC2)CC1)c1c[nH]c2c(-c3c(OCC4CC4)ccc4c3OCO4)ncnc12
From the recorded data, which exceeds the other in IC50: a or b ? Answer by quoting the chosen item's label.
a
(a: 0.372 nM, b: 0.24 nM)
